# Tested on: Staphylococcus aureus
# methodNotes: Minimum inhibitory concentration (MIC) required to inhibit the growth of Staphylococcus aureus FDA 209P by using nutrient agar as growth medium
# Format: functional
Each entry below lists one item and its recorded MIC value.
Just the number in µg/mL, nothing appended.

Below, 3 compounds whose answers are already recorded.
{"compound": "CC[C@@H]1OC(=O)C[C@H](O)[C@@H](C)[C@H](OC2OC(C)C(O)C(N(C)C)C2O)[C@H](CCNCC[C@H]2C[C@@H](C)C(=O)/C=C/C(C)=C/C(COC3OC(C)C(O)C(OC)C3OC)[C@@H](CC)OC(=O)C[C@@H](O)[C@H](C)[C@H]2OC2OC(C)C(O)C(N(C)C)C2O)C[C@H](C)C(=O)/C=C/C(C)=C/C1COC1OC(C)C(O)C(OC)C1OC (stereo not given in full)", "uom": "µg/mL", "MIC": 3.12}
{"compound": "CC[C@H]1C[C@@H](C)[C@@H](O)/C=C/C=C/C[C@@H](C)OC(=O)C[C@@H](OC(C)=O)[C@H](OC)[C@H]1OC1OC(C)C(OC2CC(C)(O)C(OC(=O)CC(C)C)C(C)O2)C(N(C)C)C1O (stereo not given in full)", "uom": "µg/mL", "MIC": 6.25}
{"compound": "CO[C@@H]1[C@@H](OC2OC(C)C(OC3CC(C)(O)C(OC(=O)CC(C)C)C(C)O3)C(N(C)C)C2O)[C@@H](CCNCC[C@@H]2C[C@H](C)[C@H](O)/C=C/C=C/C[C@H](C)OC(=O)C[C@H](OC(C)=O)[C@@H](OC)[C@@H]2OC2OC(C)C(OC3CC(C)(O)C(OC(=O)CC(C)C)C(C)O3)C(N(C)C)C2O)C[C@@H](C)[C@@H](O)/C=C/C=C/C[C@@H](C)OC(=O)C[C@H]1OC(C)=O (stereo not given in full)", "uom": "µg/mL", "MIC": 100}

Here is the next item to consider.
Entry under test: CO[C@@H]1[C@@H](OC2OC(C)C(OC3CC(C)(O)C(OC(=O)CC(C)C)C(C)O3)C(N(C)C)C2O)[C@@H](CC=O)C[C@@H](C)[C@@H](O)/C=C/C=C/C[C@@H](C)OC(=O)C[C@H]1OC(C)=O (stereo not given in full) . Its MIC was 0.4

###

# System: Staphylococcus aureus
# methodNotes: Minimum inhibitory concentration (MIC) required to inhibit the growth of Staphylococcus aureus FDA 209P by using nutrient agar as growth medium
# Type: functional
outcomeMeasure: MIC (µg/mL)
Just the number in µg/mL, nothing appended.

{"compound": "CC[C@H]1OC(=O)C[C@@H](O)[C@H](C)[C@@H](O[C@@H]2O[C@H](C)[C@@H](O[C@H]3C[C@@](C)(O)[C@@H](O)[C@H](C)O3)[C@H](N(C)C)[C@H]2O)[C@@H](CC=O)C[C@@H](C)C(=O)/C=C/C(C)=C/[C@@H]1CO[C@@H]1O[C@H](C)[C@@H](O)[C@@H](OC)[C@H]1OC", "outcomeMeasure": "MIC", "assayValue": 0.78}

Here is the next item to consider.
Entry under test: CC[C@H]1OC(=O)C[C@@H](O)[C@H](C)[C@@H](OC2OC(C)C(OC3CC(C)(O)C(O)C(C)O3)C(N(C)C)C2O)[C@@H](CCN)C[C@@H](C)C(=O)/C=C/C(C)=C/C1COC1OC(C)C(O)C(OC)C1OC (some centres not stated) . Its MIC was 50

###

# Tested on: Staphylococcus aureus
# methodNotes: Minimum inhibitory concentration (MIC) required to inhibit the growth of Staphylococcus aureus FDA 209P by using nutrient agar as growth medium
# Type: functional
Each entry below lists one item and its recorded MIC value.

Below, 2 compounds whose answers are already recorded.
{"compound": "CO[C@@H]1[C@@H](OC2OC(C)C(OC3CC(C)(O)C(OC(=O)CC(C)C)C(C)O3)C(N(C)C)C2O)[C@@H](CCN)C[C@@H](C)[C@@H](O)/C=C/C=C/C[C@@H](C)OC(=O)C[C@H]1OC(C)=O (stereo partly drawn)", "MIC": "> 100 µg/mL"}
{"compound": "CCCC(=O)OC1C(C)OC(OC2C(C)OC(O[C@H]3[C@@H](CCN)C[C@@H](C)[C@@H](O)/C=C/C=C/C[C@@H](C)OC(=O)C[C@@H](O)[C@@H]3OC)C(O)C2N(C)C)CC1(C)O (stereo partly drawn)", "MIC": "> 100 µg/mL"}

Entry under test: CCCC(=O)OC1C(C)OC(OC2C(C)OC(O[C@@H]3[C@H](CCNCC[C@H]4C[C@@H](C)[C@@H](O)/C=C/C=C/C[C@@H](C)OC(=O)C[C@@H](O)[C@H](OC)[C@H]4OC4OC(C)C(OC5CC(C)(O)C(OC(=O)CCC)C(C)O5)C(N(C)C)C4O)C[C@H](C)[C@H](O)/C=C/C=C/C[C@H](C)OC(=O)C[C@H](O)[C@H]3OC)C(O)C2N(C)C)CC1(C)O (stereo partly drawn) . Its MIC was 50 µg/mL

###

Each entry below lists one item and its recorded IC50 value.
# System: Escherichia coli
# methodNotes: Inhibition of 10,11,12,13-[3H]tetrahydroleucomycin A3 binding to Escherichia coli Ribosome
# Assay type: functional
# conditionDescription: read-out: ID50
Just the number in µg/mL, nothing appended.

Below, 3 compounds whose answers are already recorded.
{"compound": "CCCC(=O)OC1C(C)OC(OC2C(C)OC(O[C@@H]3[C@H](CCNCC[C@H]4C[C@@H](C)[C@@H](O)/C=C/C=C/C[C@@H](C)OC(=O)C[C@@H](O)[C@H](OC)[C@H]4OC4OC(C)C(OC5CC(C)(O)C(OC(=O)CCC)C(C)O5)C(N(C)C)C4O)C[C@H](C)[C@H](O)/C=C/C=C/C[C@H](C)OC(=O)C[C@H](O)[C@H]3OC)C(O)C2N(C)C)CC1(C)O (some centres undefined)", "outcomeMeasure": "IC50", "uom": "µg/mL", "assayValue": 0.02}
{"compound": "CC[C@H]1OC(=O)C[C@@H](O)[C@H](C)[C@@H](O[C@@H]2O[C@H](C)[C@@H](O[C@H]3C[C@@](C)(O)[C@@H](O)[C@H](C)O3)[C@H](N(C)C)[C@H]2O)[C@@H](CC=O)C[C@@H](C)C(=O)/C=C/C(C)=C/[C@@H]1CO[C@@H]1O[C@H](C)[C@@H](O)[C@@H](OC)[C@H]1OC", "outcomeMeasure": "IC50", "uom": "µg/mL", "assayValue": 0.0004}
{"compound": "CO[C@@H]1[C@@H](OC2OC(C)C(OC3CC(C)(O)C(OC(=O)CC(C)C)C(C)O3)C(N(C)C)C2O)[C@@H](CCNCC[C@@H]2C[C@H](C)[C@H](O)/C=C/C=C/C[C@H](C)OC(=O)C[C@H](OC(C)=O)[C@@H](OC)[C@@H]2OC2OC(C)C(OC3CC(C)(O)C(OC(=O)CC(C)C)C(C)O3)C(N(C)C)C2O)C[C@@H](C)[C@@H](O)/C=C/C=C/C[C@@H](C)OC(=O)C[C@H]1OC(C)=O (some centres undefined)", "outcomeMeasure": "IC50", "uom": "µg/mL", "assayValue": 0.1}

Entry under test: CCCC(=O)OC1C(C)OC(OC2C(C)OC(O[C@H]3[C@@H](CC=O)C[C@@H](C)[C@@H](O)/C=C/C=C/C[C@@H](C)OC(=O)C[C@@H](O)[C@@H]3OC)C(O)C2N(C)C)CC1(C)O (some centres undefined) . Its IC50 was 0.0012

###

# System: Micrococcus luteus
# methodNotes: Minimum inhibitory concentration (MIC) required to inhibit the growth of Sarcina lutea PCI 1001 by using nutrient agar as growth medium
# Format: functional
outcomeMeasure: MIC

Below, 3 molecules whose answers are already recorded.
{"molecule": "CC[C@H]1OC(=O)C[C@@H](O)[C@H](C)[C@@H](O[C@@H]2O[C@H](C)[C@@H](O[C@H]3C[C@@](C)(O)[C@@H](O)[C@H](C)O3)[C@H](N(C)C)[C@H]2O)[C@@H](CC=O)C[C@@H](C)C(=O)/C=C/C(C)=C/[C@@H]1CO[C@@H]1O[C@H](C)[C@@H](O)[C@@H](OC)[C@H]1OC", "assayValue": "< 0.1 µg/mL"}
{"molecule": "CO[C@@H]1[C@@H](OC2OC(C)C(OC3CC(C)(O)C(OC(=O)CC(C)C)C(C)O3)C(N(C)C)C2O)[C@@H](CC=O)C[C@@H](C)[C@@H](O)/C=C/C=C/C[C@@H](C)OC(=O)C[C@H]1OC(C)=O (some centres undefined)", "assayValue": "< 0.1 µg/mL"}
{"molecule": "CCCC(=O)OC1C(C)OC(OC2C(C)OC(O[C@H]3[C@@H](CC=O)C[C@@H](C)[C@@H](O)/C=C/C=C/C[C@@H](C)OC(=O)C[C@@H](O)[C@@H]3OC)C(O)C2N(C)C)CC1(C)O (some centres undefined)", "assayValue": "< 0.1 µg/mL"}

Here is the next item to consider.
Value sought: MIC, system Micrococcus luteus, item CO[C@@H]1[C@@H](OC2OC(C)C(OC3CC(C)(O)C(OC(=O)CC(C)C)C(C)O3)C(N(C)C)C2O)[C@@H](CCN)C[C@@H](C)[C@@H](O)/C=C/C=C/C[C@@H](C)OC(=O)C[C@H]1OC(C)=O (some centres undefined) . Result: > 100 µg/mL
